The following compounds are listed with their measured % TACE inhibition at 10 μM values.
target: TACE enzyme (Homo sapiens (Human), UniProt P78536); experiment: Enzymatic assay for TACE inhibition (fluorescent substrate); format: biochemical; details: at 10 μM
Sequence (P78536 215-824 limits assumed): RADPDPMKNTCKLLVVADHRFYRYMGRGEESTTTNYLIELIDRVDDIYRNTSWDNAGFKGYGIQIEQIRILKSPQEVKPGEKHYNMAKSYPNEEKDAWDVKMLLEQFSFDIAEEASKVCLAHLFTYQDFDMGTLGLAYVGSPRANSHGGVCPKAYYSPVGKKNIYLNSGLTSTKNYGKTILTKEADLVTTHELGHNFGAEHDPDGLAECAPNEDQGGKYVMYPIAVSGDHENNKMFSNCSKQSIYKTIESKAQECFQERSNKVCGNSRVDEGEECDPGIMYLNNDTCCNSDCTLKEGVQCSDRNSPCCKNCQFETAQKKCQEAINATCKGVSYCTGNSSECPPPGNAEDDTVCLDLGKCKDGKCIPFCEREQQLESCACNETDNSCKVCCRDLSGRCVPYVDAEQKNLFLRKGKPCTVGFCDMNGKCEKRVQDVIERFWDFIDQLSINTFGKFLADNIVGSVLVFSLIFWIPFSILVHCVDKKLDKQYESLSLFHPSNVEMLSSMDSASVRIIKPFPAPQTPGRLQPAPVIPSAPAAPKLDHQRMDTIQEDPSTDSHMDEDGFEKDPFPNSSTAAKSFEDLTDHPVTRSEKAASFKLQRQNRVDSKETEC
Field format: number, assumed %, no unit text.

See these solved cases before continuing.
[
  {
    "STRUCTURE AS SMILES": "CS(=O)(=O)N1CCN([C@@H](CNS(=O)(=O)c2ccc(OCc3cccc(C#N)c3)cc2)C(=O)NO)CC1",
    "% TACE inhibition at 10 μM [%]": 100
  },
  {
    "STRUCTURE AS SMILES": "CS(=O)(=O)N1CCN([C@@H](CNS(=O)(=O)c2ccc(OCc3cccc4ccccc34)cc2)C(=O)NO)CC1",
    "% TACE inhibition at 10 μM [%]": 99
  },
  {
    "STRUCTURE AS SMILES": "Cc1ccc(CN2CCN([C@@H](CNS(=O)(=O)c3ccc(OCc4cc(C)nc5ccccc45)cc3)C(=O)NO)CC2)cc1",
    "% TACE inhibition at 10 μM [%]": 97
  }
]

Give a short answer stating reported % TACE inhibition at 10 μM for CS(=O)(=O)N1CCN([C@@H](CNS(=O)(=O)c2ccc(OCc3ccc(C#N)cc3)cc2)C(=O)NO)CC1 .
100

Give a short answer stating reported % TACE inhibition at 10 μM for Cc1cc(COc2ccc(S(=O)(=O)NC[C@@H](C(=O)NO)N3CCN(C(=O)OCc4ccccc4)CC3)cc2)c2ccccc2n1 .
93

Give a short answer stating reported % TACE inhibition at 10 μM for CC#CCOc1ccc(S(=O)(=O)NC[C@@H](C(=O)NO)N2CCN(S(C)(=O)=O)CC2)cc1 .
100
